Would you kindly list protein stability index for each of these variants?
B1: SMG5 (parent)
chain: FVSIAQSEQESLLQQAQAQFRMAQ

Variants of: B1
assay summary: protein stability index of a GFP-peptide fusion (GPS, HEK-293T) (PSI 1-6); higher = more stable;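 further: lentivirally expressed fusions sorted by FACS into six bins by GFP to DsRed ratio, PSI derived from sequencing read proportions per bin multiplied by bin number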
conditions used: c terminus: a fixed tail appended
In your answer, state the number alone without any accompanying words.

**Q:** Find the recorded protein stability index belonging to `E8Y` and report it.
**A:** 1.4

**Q:** Quick one: protein stability index for `Q24K` ?
**A:** 2.65

**Q:** Please give the measured protein stability index for this variant: `S7L`
**A:** 1.77

**Q:** Quick check: protein stability index of `I4R` ?
**A:** 2.06

**Q:** For `M22F` , what is its reported protein stability index?
**A:** 2.2

**Q:** Fill blank: measured protein stability index of the variant `S3D` is ____.
**A:** 2.22

**Q:** Recorded protein stability index of `A5P` , please.
**A:** 1.88

**Q:** Query (variant): `Q9D` ; field requested: protein stability index
**A:** 2.15

**Q:** Sample `I4D` — what was its protein stability index?
**A:** 3.09

**Q:** I would be grateful if you could share the reported protein stability index for `F1K` .
**A:** 3.77

**Q:** What protein stability index value was documented for this variant, `Q19V` ?
**A:** 2.13

**Q:** Suppose we examine the variant `A16N` ; what protein stability index value has been reported?
**A:** 2.37

**Q:** Form field: reported protein stability index of `V2W`
**A:** 2.98

**Q:** Can you look up the measured protein stability index of `Q17L` for me?
**A:** 2.04

**Q:** Consider the variant shown here: `F20H` What is its recorded protein stability index?
**A:** 3.04

**Q:** Which protein stability index reading was recorded for the variant `V2H` ?
**A:** 2.43

**Q:** For `F1I` , what is its reported protein stability index?
**A:** 2.96

**Q:** May I ask what protein stability index has been recorded for `A5S` ?
**A:** 1.76

**Q:** Any idea what its protein stability index is? The variant is `Q6A`
**A:** 1.9

**Q:** Would you mind telling me what protein stability index value was observed for `A5F` ?
**A:** 2.56

**Q:** # input variant: `Q24T` ; wanted: its protein stability index
**A:** 2.08

**Q:** If you can, please state the reported protein stability index value of `F20W` .
**A:** 1.82

**Q:** Entry under review: `L13T` . Reported protein stability index?
**A:** 2.28

**Q:** May I ask what protein stability index has been recorded for `S3I` ?
**A:** 1.61

**Q:** Form field: reported protein stability index of `S7N`
**A:** 2.27

**Q:** Quick one: protein stability index for `Q6Y` ?
**A:** 2.32

**Q:** What value of protein stability index has been reported for the following variant? `V2E`
**A:** 3.69

**Q:** Given the variant `Q24V` , what is its reported protein stability index?
**A:** 1.63

**Q:** protein stability index for `Q19L` ?
**A:** 2.47

**Q:** Can you share its protein stability index? I mean this variant: `S11R`
**A:** 2.37

**Q:** Fill in: protein stability index of `F1S` is ___
**A:** 3.41

**Q:** Given `A18E` , state its recorded protein stability index.
**A:** 2.48

**Q:** Item `S7K` has what recorded protein stability index?
**A:** 1.98

**Q:** # lookup: protein stability index of `R21D`
**A:** 2.48

**Q:** # input variant: `Q14E` ; wanted: its protein stability index
**A:** 2.88

**Q:** Item under review: `M22C` . Reported protein stability index?
**A:** 3.04

**Q:** Look up protein stability index: `A16L`
**A:** 1.73

**Q:** # lookup: protein stability index of `Q6N`
**A:** 1.97

**Q:** Query: protein stability index; subject: `L13P`
**A:** 3.08

**Q:** Form field: reported protein stability index of `A16R`
**A:** 2.53

**Q:** Quick one: protein stability index of `Q15W` ?
**A:** 2.55

**Q:** GET /values?readout=protein stability index&item= `L13Y`
**A:** 1.31

**Q:** Tell me the measured protein stability index of `I4H` , please.
**A:** 1.9

**Q:** Give its protein stability index value. Item: `F1Y`
**A:** 2.51

**Q:** Value lookup for protein stability index; key = `S3A`
**A:** 1.99

**Q:** Bench note: what protein stability index did `L13M` show?
**A:** 2.66

**Q:** I'd like to know its protein stability index. The variant in question is `Q14R`
**A:** 2.21

**Q:** Query: protein stability index; subject: `Q9K`
**A:** 1.73

**Q:** State the recorded protein stability index for this entry: `E10P`
**A:** 1.96

**Q:** GET /values?readout=protein stability index&item= `Q6K`
**A:** 2.26

**Q:** Look up protein stability index: `F20Q`
**A:** 2.5

**Q:** For the variant shown here, `V2R` , give the reported protein stability index.
**A:** 3.45

**Q:** Dear colleague, I am looking for the recorded protein stability index of the following variant: `Q14T`
**A:** 2.09

**Q:** Which measured protein stability index value corresponds to `S3T` ?
**A:** 2.25

**Q:** Would you kindly share the measured protein stability index for `L12E` ?
**A:** 2.48

**Q:** I have this variant here, `R21G` , and I need its recorded protein stability index.
**A:** 2.08

**Q:** GET /values?readout=protein stability index&item= `A5H`
**A:** 2.21

**Q:** Any idea what protein stability index was measured for `S11I` ?
**A:** 1.69

**Q:** State the recorded protein stability index for this entry: `A5G`
**A:** 1.66

**Q:** // protein stability index lookup, key: `L13E`
**A:** 2.13

**Q:** Which protein stability index value belongs to `E8S` ?
**A:** 1.82

**Q:** Form field: reported protein stability index of `F1W`
**A:** 2.65

**Q:** Consider the variant `A23R` and give its measured protein stability index.
**A:** 2.26

**Q:** Consider the variant shown here: `Q19A` What is its recorded protein stability index?
**A:** 1.87

**Q:** Item `Q17P` has what recorded protein stability index?
**A:** 3.35

**Q:** Fill blank: measured protein stability index of the variant `Q14K` is ____.
**A:** 2.79

**Q:** Data request, read-out protein stability index, for `I4A`
**A:** 2.38

**Q:** Quick one: protein stability index of `Q14M` ?
**A:** 2.18

**Q:** Fill in: protein stability index of `A5Q` is ___
**A:** 2.11

**Q:** // protein stability index lookup, key: `Q6E`
**A:** 2.93

**Q:** Please look up its protein stability index: `S11W`
**A:** 1.79

**Q:** Requested read-out: protein stability index. Entry: `Q14Y`
**A:** 1.7

**Q:** Query (variant): `F20I` ; field requested: protein stability index
**A:** 2.48

**Q:** # lookup: protein stability index of `A16V`
**A:** 1.78

**Q:** What value of protein stability index has been reported for the following variant? `Q14V`
**A:** 1.64

**Q:** Entry `L13H` : reported protein stability index = ?
**A:** 3.08

**Q:** State the recorded protein stability index for this entry: `Q24Y`
**A:** 2.1

**Q:** Quick one: protein stability index of `Q17V` ?
**A:** 2.03

**Q:** Which protein stability index is listed for `V2F` ?
**A:** 2.22

**Q:** Reported protein stability index for `F1G` : what is it?
**A:** 4.01

**Q:** Which protein stability index value belongs to `L13D` ?
**A:** 3

**Q:** Give the measured protein stability index of `V2I` .
**A:** 2.59

**Q:** Please give the measured protein stability index for this variant: `L12C`
**A:** 2.17

**Q:** # protein stability index lookup, item `L12T`
**A:** 2.54

**Q:** I'd like to know its protein stability index. The variant in question is `Q19E`
**A:** 2.82

**Q:** Param item = `A16H` ; retrieve measured protein stability index.
**A:** 2.56

**Q:** Query: protein stability index; subject: `Q19Y`
**A:** 1.08
